Biological target: HPK1 (Homo sapiens, UniProt Q92918)
Sequence (Q92918 1-346 limits assumed): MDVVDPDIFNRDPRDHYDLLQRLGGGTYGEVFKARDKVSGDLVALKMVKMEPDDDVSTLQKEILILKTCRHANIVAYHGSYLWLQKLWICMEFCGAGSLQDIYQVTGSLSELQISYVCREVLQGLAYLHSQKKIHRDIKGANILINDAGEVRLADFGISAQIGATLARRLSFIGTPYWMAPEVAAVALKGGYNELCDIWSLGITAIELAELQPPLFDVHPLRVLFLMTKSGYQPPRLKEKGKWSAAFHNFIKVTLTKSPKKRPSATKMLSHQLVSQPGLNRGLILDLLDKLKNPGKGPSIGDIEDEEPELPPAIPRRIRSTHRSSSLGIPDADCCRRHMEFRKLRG
Assay: HPK1 kinase activity assay (ADP-Glo)
Details: HPK1 Kinase activity IC50 (nM), 1 nM HPK1, 10 μM ATP, 0.1 μg/μL MBP
# if measured IC50 < 2 nM: fulfilled  # else: not fulfilled

molecule	class assignment
Cc1c[nH]c2ncc(-c3cc4c(c(N5CCC[C@@H]5CO)c3)COCC4)cc12	not fulfilled
Cc1c[nH]c2ncc(-c3cc4c(c([C@@H]5CCCN5)c3)CN(C(=O)C3CCCCC3)CC4)cc12	fulfilled
Cc1c[nH]c2ncc(-c3cc4c(c([C@@H]5CCCN5)c3)CN(C(=O)c3ccncn3)CC4)cc12	fulfilled
Cc1ccc(-c2c[nH]c3ncc(-c4cc5c(c([C@@H]6CCCN6)c4)COCC5)cc23)cn1	not fulfilled
CCNC(=O)N1CCc2c(cc(-c3cnc4[nH]cc(C)c4c3)cc2[C@@H]2CCCN2)C1	fulfilled
Cc1c[nH]c2ncc(-c3cc4c(c([C@@H]5CCCN5)c3)CN(c3ccncn3)CC4)cc12	fulfilled
COc1cc(N2CCc3cc(-c4cnc5[nH]cc(C)c5c4)cc([C@@H]4CCCN4)c3C2)ccn1	fulfilled
CC(C)c1c[nH]c2ncc(-c3cc([C@H]4CCCN4)c4cnccc4c3)cc12 (single isomer, unassigned)	not fulfilled

Here's an entry: CCn1cc(C(=O)N2CCc3cc(-c4cnc5[nH]cc(C)c5c4)cc([C@@H]4CCCN4)c3C2)cn1 . Is its IC50 below 2 nM? fulfilled

Here's an entry: Cc1c[nH]c2ncc(-c3cc4c(c([C@@H]5CCCN5)c3)CN(C(=O)c3cn(C)nc3C(F)(F)F)CC4)cc12 . Is its IC50 below 2 nM? fulfilled
